meta.source: patent US8669072B2

I'd appreciate it if you could supply Rel Max FI, 27-63 assay values for the items below.
- study_system: GAL4 DBD (1-147)-CfEcR(DEF)/VP16AD-βRXREF-LmUSPEF (Choristoneura fumiferana, UniProt O77240)
- Construct: The wild-type D, E, and F domains from spruce budworm Choristoneura fumiferana EcR (“CfEcR-DEF”)
- procedure_details: cell-based
- setup_conditions: maximum fold induction relative to that of GS-E ligand
Give bare numbers.

Examples from the recorded data:
>>> print(df.to_string())
                                   molecule  observed
0  CCc1c(C(=O)NN2C(c3ccccc3)=NOC2(C)C)ccc2c1OCCO2 [RG-121517]      1.55
1  CCc1ccc(C(=O)NN2C(c3cccc(C(F)(F)F)c3)=NOC2(C)C)cc1 [RG-120148]         0
2  CCc1ccc(C(=O)NN2C(c3cc(C)cc(C)c3)=NOC2(C)CC)cc1 (stereo not shown) [RG-120128]      0.18
3  CCc1ccc(C(=O)NN2C(c3ccc(OC(F)(F)F)cc3)=NOC2(C)C)cc1 [RG-120055]         0
4  CCc1ccc(C(=O)NN2C(c3ccccc3)=NOC23CCCC3)cc1 [RG-120125]      0.27

Batch of 4 molecules: report Rel Max FI, 27-63 assay for each.
1. CCc1c(OC)cccc1C(=O)NN1C(c2ccccc2)=NOC12CCCC2 [RG-120092]
2. CCc1c(OC)cccc1C(=O)NN1C(c2ccccc2)=NOC1(C)CC (stereo not shown) [RG-120076]
3. CCc1ccc(C(=O)NN2C(c3ccccc3)=NOC2(C)CC)cc1 (stereo not shown) [RG-120137]
4. CCc1ccc(C(=O)NN2C(c3cc(C)cc(C)c3)=NOC23CCOCC3)cc1 [RG-120005]

[1.15, 1.4, 0, 0]

Batch of 2 molecules: report Rel Max FI, 27-63 assay for each.
1. Cc1cc(C)cc(C2=NOC3(CCOCC3)N2NC(=O)c2ccccc2)c1 [RG-120019]
2. CCc1ccc(C(=O)NN2C(c3cc(C)cc(C)c3)=NOC2(C)C)cc1 [RG-120060]

1. 0
2. 0.01

Batch of 6 molecules: report Rel Max FI, 27-63 assay for each.
1. CCc1ccc(C(=O)NN2C(c3ccccc3)=NOC2(C)C)c(F)c1 [RG-121516]
2. CCc1c(C(=O)NN2C(c3cc(C)cc(C)c3)=NOC2(C)CC)ccc2c1OCCO2 (stereo not shown) [RG-121518]
3. CCc1ccc(C(=O)NN2C(c3cc(C)cc(C)c3)=NOC23CCCC3)c(F)c1 [RG-121515]
4. CCc1ccc(C(=O)NN2C(c3cc(C)cc(C)c3)=NOC2(C)CC)c(F)c1 (stereo not shown) [RG-121513]
5. COc1cccc(C(=O)NN2C(c3cc(C)cc(C)c3)=NOC2(C)C)c1C [RG-120045]
6. CCc1c(OC)cccc1C(=O)NN1C(c2cc(C)cc(C)c2)=NOC1(C)C [RG-120080]

0
1.08
0.17
0.44
1.25
1.29

Batch of 2 molecules: report Rel Max FI, 27-63 assay for each.
1. CCc1ccc(C(=O)NN2C(c3ccccc3)=NOC2(C)C)cc1 [RG-120115]
2. CCc1c(OC)cccc1C(=O)NN1C(c2cccc(C(F)(F)F)c2)=NOC1(C)C [RG-120093]

1. 0
2. 0
